system_tested: purified recombinant human PHOSPHO1 (Homo sapiens, UniProt Q8TCT1)
Sequence (Q8TCT1 1-292 isoform Q8TCT1-3): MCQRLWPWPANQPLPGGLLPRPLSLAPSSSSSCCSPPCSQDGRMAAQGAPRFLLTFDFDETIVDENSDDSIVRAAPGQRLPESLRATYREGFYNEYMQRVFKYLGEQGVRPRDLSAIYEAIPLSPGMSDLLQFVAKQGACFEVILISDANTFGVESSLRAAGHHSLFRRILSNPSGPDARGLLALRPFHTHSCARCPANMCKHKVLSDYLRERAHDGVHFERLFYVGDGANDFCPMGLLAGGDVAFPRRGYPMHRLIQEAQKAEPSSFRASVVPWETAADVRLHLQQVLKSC
assay_protocol: PHOSPHO1 inhibition, Biomol Green colorimetric phosphate release assay
Format: biochemical
applied_conditions: P-Cho IC50, substrate P-Cho 62.5 μmol/L, pH 6.7, 60 min room temperature
value_type: IC50 (nM)
One number for each entry, in nM.

Request: Form field - read-out: IC50; system: purified recombinant human PHOSPHO1 (Homo sapiens, UniProt Q8TCT1); submitted item: Cc1c(OCC(F)(F)F)ccnc1C[S+]([O-])c1nc2ccccc2[nH]1 (stereo not shown) [Lansoprazole]
Response: 60
